Target: Cholecystokinin receptor type A (Rattus norvegicus, UniProt P30551)
Sequence (P30551 whole entry): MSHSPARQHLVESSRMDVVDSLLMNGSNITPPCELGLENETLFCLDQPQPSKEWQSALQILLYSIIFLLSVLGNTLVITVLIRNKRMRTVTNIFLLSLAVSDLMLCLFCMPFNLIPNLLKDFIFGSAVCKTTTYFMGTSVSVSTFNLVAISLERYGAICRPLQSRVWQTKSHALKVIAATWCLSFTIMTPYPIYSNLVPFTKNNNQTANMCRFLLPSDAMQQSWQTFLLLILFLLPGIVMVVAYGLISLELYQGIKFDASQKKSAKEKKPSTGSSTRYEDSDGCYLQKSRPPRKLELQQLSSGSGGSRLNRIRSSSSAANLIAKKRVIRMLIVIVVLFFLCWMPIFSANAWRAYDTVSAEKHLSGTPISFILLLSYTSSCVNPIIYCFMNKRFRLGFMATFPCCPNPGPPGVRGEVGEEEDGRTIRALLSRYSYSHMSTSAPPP
Assay: Inhibition by displacing [3H]CCK-8S against Cholecystokinin type A receptor of rat pancreatic membranes
Catalogue of pKi values
pKi here is simply -log10 of the concentration when that concentration is written in mol/L.

# compound, observed
rows = [
    ("O=C(Nc1ccccc1)NC1C(=O)N(CC23C[C@H]4C[C@@H](C2)C[C@@H](C3)C4)c2ccccc2N(c2ccccc2)C1=O (single isomer, unassigned; (+))", 5.83),
]

## Task Requested read-out: pKi. Entry: `Cc1cccc(NC(=O)N[C@@H]2N=C(c3ccccc3)c3ccccc3N(C)C2=O)c1`
## Result 9.83
